# STUDY_TARGET: UniProt P46098
# Sequence (P46098 24-478): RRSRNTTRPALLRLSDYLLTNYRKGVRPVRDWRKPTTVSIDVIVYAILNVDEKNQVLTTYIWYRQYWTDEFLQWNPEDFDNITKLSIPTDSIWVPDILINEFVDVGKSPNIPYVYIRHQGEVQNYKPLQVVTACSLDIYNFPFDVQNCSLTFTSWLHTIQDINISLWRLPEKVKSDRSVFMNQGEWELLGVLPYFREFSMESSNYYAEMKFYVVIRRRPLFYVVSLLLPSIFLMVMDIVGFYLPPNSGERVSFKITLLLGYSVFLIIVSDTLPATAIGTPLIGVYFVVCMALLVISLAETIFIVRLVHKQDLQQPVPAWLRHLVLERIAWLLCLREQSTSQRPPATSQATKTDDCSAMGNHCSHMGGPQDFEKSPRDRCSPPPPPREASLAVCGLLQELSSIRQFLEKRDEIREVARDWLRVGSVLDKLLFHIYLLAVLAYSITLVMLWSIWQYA
# TEST_PROTOCOL: Inhibition of Ca flux activity of 5HT3 in vitro assay
# RUN_PARAMETERS: 5HT3a expressed in HEK-293T cells; 5HT 216 nM; approximate values
# Description: The 5HT3 antagonist activity of the compounds of the invention was determined by measuring the ability of the compounds to inhibit the calcium flux activity of […] receptor expressed in HEK-293T cells. […] Test plate and addition plate were loaded into the FlexStation III (Molecular Devices), and using the fluidics, 22.5 uL compound additions were made (at t=˜17 seconds), and fluorescence was measured for 90 seconds, reading every 2.2 seconds. […]
Note that class boundaries on IC50 are bucket A (below 0.9 nM), bucket B (0.9 nM to below 4 nM), bucket C (4 nM or more)

* CN1[C@@H]2CCC[C@H]1CC(OC(=O)c1c(Cl)n(CCF)c3ccccc13)C2 (stereo partly drawn) | bucket A
* CN1[C@@H]2CC[C@H]1CC(OC(=O)c1cn(CC(F)(F)F)c3ccc(F)cc13)C2 (stereo partly drawn) | bucket B
* Cc1c(C(=O)OC2C[C@H]3CC[C@@H](C2)N3C)c2ccccc2n1CCF (stereo partly drawn) | bucket A
* N#CCn1cc(C(=O)OC2C[C@H]3COC[C@@H](C2)N3)c2ccccc21 (stereo partly drawn) | bucket B
* CN1[C@@H]2CCC[C@H]1CC(OC(=O)c1cn(S(C)(=O)=O)c3ccc(F)cc13)C2 (stereo partly drawn) | bucket A
* O=C(OC1CC2CCC(C1)N2)c1cn(CC(F)(F)F)c2ccccc12 (stereo not drawn) | bucket B
* CN1[C@@H]2CC[C@H]1CC(OC(=O)c1nn(CC(F)(F)F)c3ccccc13)C2 (stereo partly drawn) | bucket C
* O=C(OC1CC2COCC(C1)N2)c1cn(-c2ccsn2)c2ccccc12 (stereo not drawn) | bucket B
* O=C(OC1C[C@H]2COC[C@@H](C1)N2CCF)c1cn(CC(F)F)c2ccc(F)cc12 (stereo partly drawn) | bucket C
* O=C(NC1CC2COCC(C1)N2)c1cn(CC(F)(F)F)c2ccc(F)cc12 (stereo not drawn) | bucket B

----------
# STUDY_TARGET: UniProtKB P46098
# TEST_PROTOCOL: Inhibition of Ca flux activity of 5HT3 in vitro assay
# RUN_PARAMETERS: 5HT3a expressed in HEK-293T cells; 5HT 216 nM; approximate values
pIC50: −log10 of the molar value.
Record 1 whenever pIC50 is at 9 or higher; record -1 when lower.

* CN1[C@@H]2COC[C@H]1CC(OC(=O)c1cn(-c3cncnc3)c3ccccc13)C2 (stereo partly shown) | 1
* CS(=O)(=O)n1cc(C(=O)O[C@H]2C[C@H]3COC[C@@H](C2)N3)c2cc(F)ccc21 | -1
* CN1[C@@H]2CCC[C@H]1CC(OC(=O)c1nn(CCF)c3ccccc13)C2 (stereo partly shown) | -1
* O=C(OC1C[C@H]2COC[C@@H](C1)N2)c1cn(-c2ncccn2)c2ccccc12 (stereo partly shown) | -1

----------
# STUDY_TARGET: UniProt:P46098
# TEST_PROTOCOL: Inhibition of Ca flux activity of 5HT3 in vitro assay
# RUN_PARAMETERS: 5HT3a expressed in HEK-293T cells; 5HT 216 nM; approximate values
MEASUREMENT_TYPE: IC50 (nM)

* O=C(OC1CC2COCC(C1)N2)c1cn(-c2ccns2)c2ccccc12 (stereo not drawn) | 1.26
* CN1[C@@H]2COC[C@H]1C[C@@H](OC(=O)c1cn(-c3cncs3)c3ccccc13)C2 | 1.27
* CN1[C@@H]2COC[C@H]1C[C@@H](OC(=O)c1cn(-c3ccc(F)nn3)c3ccccc13)C2 | 0.681
* CN1[C@@H]2CC[C@H]1CC(OC(=O)c1cn(S(C)(=O)=O)c3ccccc13)C2 (stereo partly drawn) | 0.54
* CN1[C@@H]2COC[C@H]1CC(OC(=O)c1cn(-c3cnc(F)cn3)c3ccccc13)C2 (stereo partly drawn) | 1.25
* CN1[C@@H]2CC[C@H]1C[C@@H](OC(=O)c1c(Cl)n(S(C)(=O)=O)c3ccccc13)C2 | 0.93
* CN1[C@@H]2COC[C@H]1CC(OC(=O)c1cn(-c3cnccn3)c3ccccc13)C2 (stereo partly drawn) | 1.1
* CN1[C@@H]2COC[C@H]1C[C@@H](OC(=O)c1cn(CC(F)(F)F)c3ccc(F)cc13)C2 | 1.38
* CN1[C@@H]2CC[C@H]1C[C@H](OC(=O)c1c3n(c4ccccc14)CCO3)C2 | 1.08
* CN1[C@@H]2COC[C@H]1CC(OC(=O)c1cn(-c3ccsn3)c3ccccc13)C2 (stereo partly drawn) | 1.62
* CN1[C@@H]2CCC[C@H]1CC(OC(=O)c1nn(S(C)(=O)=O)c3ccccc13)C2 (stereo partly drawn) | 1.4
* CN1[C@@H]2COC[C@H]1CC(OC(=O)c1cn(-c3ncccn3)c3ccccc13)C2 (stereo partly drawn) | 1.75

Measured values drawn from patent US9695195B2 for this set.
